Read-out: E-selectin (Homo sapiens)
Assay: BSK_SAg_Eselectin: BioMAP Diversity Plus: SAg Assay for Eselectin Biomarker Activity (AID 2283091)
Settings: primary human HUVEC with PBMC; actives raise or lower the signal
The source made the active and inactive calls. How the source made its calls: active means hit-call score of the fitted dose curve at least 0.9, where 1 is the maximum; inactive means score below 0.9.
Labels: active, inactive

{"columns": ["Compound", "Label value"],
 "data": [
  ["[O-][Cl+]O", "inactive"],
  ["Oc1ccc2ccc3cccc4ccc1c2c34", "active"],
  ["COc1cc(C=O)cc2c1[C@H](COC(N)=O)[C@]1(OC(C)=O)ON2C[C@H]2[C@@H]1N2C(C)=O", "active"],
  ["CC(C)N(Cc1ccccc1)C(=O)C(C)(C)C", "inactive"],
  ["C[N+](C)(C)CC1CO1 (stereo not given)", "inactive"],
  ["CCCCCOC(=O)c1ccccc1C(=O)OCCCCC", "active"],
  ["CNC(=O)Oc1cccc2c1OC(C)(C)C2", "inactive"],
  ["CC(C)(C)C(O)(CCc1ccc(Cl)cc1)Cn1cncn1 (stereo not given)", "inactive"],
  ["CN(C)c1ccccc1", "inactive"],
  ["CC(C)COC(=O)c1ccccc1C(=O)OCC(C)C", "active"],
  ["CCCCCCCCOC(=O)c1ccc(C(=O)OCCCCCCCC)c(C(=O)OCCCCCCCC)c1", "inactive"],
  ["CCCSC(=O)N(CCC)CCC", "inactive"],
  ["Nc1cc(Cl)cc(C(=O)O)c1Cl", "inactive"],
  ["OCCCBr", "inactive"],
  ["Cc1cc(N=Nc2ccccc2C)ccc1N", "active"],
  ["Nc1ccc(Cc2ccc(N)cc2)cc1", "active"],
  ["CC(C)(OOC(C)(C)c1ccccc1)c1ccccc1", "active"],
  ["CCC(C)c1ccc(O)cc1 (stereo not given)", "inactive"],
  ["COC(=O)Nc1nc2ccccc2[nH]1", "inactive"],
  ["Nc1ccc([N+](=O)[O-])cc1", "inactive"],
  ["O=C(O)C1C2CCC(O2)C1C(=O)O (stereo not given)", "inactive"],
  ["CC(C)(O)c1cnn2c(-c3ccc(F)c(-c4c(F)cccc4C#N)c3)cnc2n1", "inactive"],
  ["CS(=O)(=O)NC(=O)c1cc(Oc2ccc(C(F)(F)F)cc2Cl)ccc1[N+](=O)[O-]", "inactive"],
  ["O=P(OCCCl)(OCCCl)OCCCl", "inactive"],
  ["CCCCC(CC)COC(=O)c1ccc(C(=O)OCC(CC)CCCC)c(C(=O)OCC(CC)CCCC)c1 (stereo not given)", "inactive"]
]}

###

Read-out: Early growth response protein 1 (EGR1) transcription factor, EGR1 (gene 1958)
Assay: LTEA_HepaRG_EGR1: Life Technologies and Expression Analysis (LTEA) Assay for Early growth response protein 1 (EGR1) transcription factor using HepaRG (AID 2283490)
Conditions: mRNA level, 48 h; actives raise or lower the signal
Activity calls are given as the source filed them. The calls were made as follows: active = hit-call score of the fitted dose curve at least 0.9, where 1 is the maximum; inactive = score below 0.9.
Possible outcomes: True for active, False for inactive

{"columns": ["Compound", "Label value"],
 "data": [
  ["CCC12COCN1COC2", "False"],
  ["O=C(N[C@H](c1ccccc1)[C@@H]1CN2CCC1CC2)c1c(Cl)ccc(C(F)(F)F)c1Cl", "True"],
  ["CO[C@@H]1[C@H](OC(=O)NC(=O)CCl)CC[C@]2(CO2)[C@H]1[C@@]1(C)O[C@@H]1CC=C(C)C", "False"],
  ["Oc1ccccc1Cl", "False"],
  ["[As]#[In]", "False"],
  ["N#CC(Br)(Br)C(N)=O", "False"],
  ["[Cl-].[Cl-].[Hg+2]", "False"],
  ["[O-][Cl+]O", "False"],
  ["Cn1cc(-c2ccccc2)c(=O)c(-c2cccc(C(F)(F)F)c2)c1", "False"],
  ["CCCCCOC(=O)c1ccccc1C(=O)OCCCCC", "False"],
  ["c1ccc2c(c1)-c1cccc3cccc-2c13", "False"],
  ["O=P(OCCCl)(OCCCl)OCCCl", "False"],
  ["CCCCC(CC)COC(=O)c1ccc(C(=O)OCC(CC)CCCC)c(C(=O)OCC(CC)CCCC)c1 (stereo not drawn)", "False"]
]}

###

Read-out: Cytochrome P450 3A7 (Homo sapiens) (UniProt P24462)
Sequence (P24462 whole entry, looked up): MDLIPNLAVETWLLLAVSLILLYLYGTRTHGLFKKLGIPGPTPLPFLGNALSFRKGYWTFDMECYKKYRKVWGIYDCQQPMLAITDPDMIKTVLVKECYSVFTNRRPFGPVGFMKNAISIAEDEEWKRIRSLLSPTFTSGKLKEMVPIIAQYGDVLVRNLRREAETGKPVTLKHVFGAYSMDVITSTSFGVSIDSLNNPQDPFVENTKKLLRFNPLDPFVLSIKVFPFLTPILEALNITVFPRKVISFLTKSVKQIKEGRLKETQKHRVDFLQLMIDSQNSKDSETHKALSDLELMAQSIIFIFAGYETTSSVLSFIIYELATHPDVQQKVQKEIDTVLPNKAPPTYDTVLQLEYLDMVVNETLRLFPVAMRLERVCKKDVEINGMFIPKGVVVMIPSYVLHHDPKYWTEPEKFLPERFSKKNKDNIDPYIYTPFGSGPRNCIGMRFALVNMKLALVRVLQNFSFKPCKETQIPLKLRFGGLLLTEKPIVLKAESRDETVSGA
Test: LTEA_HepaRG_CYP3A7: Life Technologies and Expression Analysis (LTEA) Assay for CYP3A7 using HepaRG (AID 2283492)
Conditions: mRNA level, 48 h; actives raise or lower the signal
Activity calls are given as the source filed them. Rule for the calls: active = hit-call score of the fitted dose curve at least 0.9, where 1 is the maximum; inactive = score below 0.9.
Classes used: y for active, n for inactive

{"columns": ["Compound", "Label value"],
 "data": [
  ["Cc1ccc(N)c(N)c1", "y"],
  ["CC(O)CCO (configuration not stated)", "n"],
  ["CCOC(=O)[C@]1(c2ccccc2)Oc2ccccc2[C@@H]1N", "y"],
  ["ClC1=C(Cl)[C@]2(Cl)[C@H]3[C@H]([C@@H]4C=C[C@H]3C4)[C@@]1(Cl)C2(Cl)Cl", "y"],
  ["CCNS(=O)(=O)C(F)(F)C(F)(F)C(F)(F)C(F)(F)C(F)(F)C(F)(F)C(F)(F)C(F)(F)F", "n"],
  ["Nc1ccc([N+](=O)[O-])cc1", "n"],
  ["CN(C)[C@@H]1C(=O)C(C(N)=O)=C(O)[C@@]2(O)C(=O)C3=C(O)c4c(O)cccc4[C@@](C)(O)[C@H]3C[C@@H]12", "n"],
  ["Clc1ccccc1Cl", "n"],
  ["Cc1ccc(N=C=O)cc1N=C=O", "n"],
  ["c1ccc(N=Nc2ccccc2)cc1", "n"],
  ["CCC[CH2][Sn]([Cl])([CH2]CCC)[CH2]CCC", "y"],
  ["CS(=O)(=O)NC(=O)c1cc(Oc2ccc(C(F)(F)F)cc2Cl)ccc1[N+](=O)[O-]", "y"]
]}

###

Assay: CCTE_Simmons_MITO_inhib_resp_rate: CCTE's HepG2 Seahorse XF Respirometric Screening Assay at Inhibited Respiratory State [full ETC block], Simmons Lab (AID 2284006)
Settings: actives raise or lower the signal
Calls of active or inactive are those of the source. Rule for the calls: active = hit-call score of the fitted dose curve at least 0.9, where 1 is the maximum; inactive = score below 0.9.
Outcomes: active, inactive

{"columns": ["Compound", "Label value"],
 "data": [
  ["CC(C)(C)C(O)(CCc1ccc(Cl)cc1)Cn1cncn1 (stereo unspecified)", "inactive"],
  ["CCCCCCCCn1sccc1=O", "inactive"],
  ["COc1cc(C=O)cc2c1[C@H](COC(N)=O)[C@]1(OC(C)=O)ON2C[C@H]2[C@@H]1N2C(C)=O", "inactive"],
  ["Cc1cc(N=Nc2ccccc2C)ccc1N", "inactive"],
  ["CC(C)COC(=O)c1ccccc1C(=O)OCC(C)C", "inactive"],
  ["C[C@]12C=CC3=C4CCC(=O)C=C4CC[C@H]3[C@@H]1CC[C@@H]2O", "inactive"],
  ["Nc1ccc(N=Nc2ccccc2)cc1", "inactive"],
  ["CCOC(=O)[C@]1(c2ccccc2)Oc2ccccc2[C@@H]1N", "inactive"],
  ["[Cl-].[Cl-].[Hg+2]", "active"],
  ["CC(C)N(Cc1ccccc1)C(=O)C(C)(C)C", "inactive"],
  ["CCC(C)c1ccc(O)cc1 (stereo unspecified)", "inactive"]
]}

###

Read-out: Insulin-like growth factor-binding protein 1 (IGFBP1), IGFBP1 (gene 3484)
Assay: LTEA_HepaRG_IGFBP1: Life Technologies and Expression Analysis (LTEA) Assay for Insulin-like growth factor-binding protein 1 (IGFBP1) using HepaRG (AID 2283508)
Settings: mRNA level, 48 h; actives raise or lower the signal
Calls of active or inactive are those of the source. The calls were made as follows: active = hit-call score of the fitted dose curve at least 0.9, where 1 is the maximum; inactive = score below 0.9.
Outcome codes: T for active, F for inactive

{"columns": ["Compound", "Label value"],
 "data": [
  ["CCCCC(CC)COC(=O)c1ccc(C(=O)OCC(CC)CCCC)c(C(=O)OCC(CC)CCCC)c1 (stereo not given)", "F"],
  ["CC(C)COC(=O)c1ccccc1C(=O)OCC(C)C", "F"],
  ["Cc1cc(N=Nc2ccccc2C)ccc1N", "T"],
  ["CCCCCCCCCCCCCN1CC(C)OC(C)C1 (stereo not given)", "F"],
  ["C[N+](C)(C)CC1CO1 (stereo not given)", "F"],
  ["OCCCl", "F"],
  ["CNC(=O)Oc1cccc2c1OC(C)(C)C2", "F"],
  ["O=C(Oc1ccc(Br)cc1)N1CCN2CCC1CC2", "F"],
  ["OCCOCCO", "F"],
  ["O=[N+]([O-])C(Br)(CO)CO", "F"],
  ["Nc1ccc(Cc2ccc(N)cc2)cc1", "F"],
  ["N#CC(Br)Br", "F"],
  ["CCCCOC(=O)c1ccccc1C(=O)OCc1ccccc1", "F"],
  ["CCN(CC)N=O", "F"],
  ["CC(C)(C)OOC(=O)c1ccccc1", "F"]
]}

###

Test: APR_HepG2_MitoMass_72hr: Apredica 72-hour HepG2 Assay for Mitochondrial Mass (AID 2282924);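 further: MitoTracker Red CMXRos stain intensity per cell imaged as mitochondrial mass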
Settings: high-content imaging, actives raise or lower the signal
Activity calls are given as the source filed them. The calls were made as follows: active = hit-call score of the fitted dose curve at least 0.9, where 1 is the maximum; inactive = score below 0.9.

{"columns": ["Compound", "outcome"],
 "data": [
  ["Nc1ccc(Oc2ccc(N)cc2)cc1", "inactive"],
  ["CCCCC(CC)COC(=O)c1ccc(C(=O)OCC(CC)CCCC)c(C(=O)OCC(CC)CCCC)c1 (centres undefined)", "inactive"],
  ["CCC12COCN1COC2", "inactive"],
  ["CCCSC(=O)N(CCC)CCC", "inactive"],
  ["COc1cc(C=O)cc2c1[C@H](COC(N)=O)[C@]1(OC(C)=O)ON2C[C@H]2[C@@H]1N2C(C)=O", "inactive"],
  ["O=[N+]([O-])C(Br)(CO)CO", "inactive"],
  ["O=[N+]([O-])c1ccc(Oc2ccc(Cl)cc2Cl)cc1", "inactive"],
  ["C1=Cc2cccc3cccc1c23", "inactive"],
  ["O=C(N[C@H](c1ccccc1)[C@@H]1CN2CCC1CC2)c1c(Cl)ccc(C(F)(F)F)c1Cl", "inactive"],
  ["CCOC(=O)[C@]1(c2ccccc2)Oc2ccccc2[C@@H]1N", "inactive"],
  ["c1ccc(N=Nc2ccccc2)cc1", "inactive"],
  ["c1ccc2c(c1)-c1cccc3cccc-2c13", "inactive"],
  ["O=C1CCCO1", "inactive"],
  ["OCCCl", "inactive"]
]}
